Test system: M2 macrophages
Assay: Cell marker expression on M2 macrophages, flow cytometry
Assay type: cell-based, human
Settings: control 55.66%
reported-endpoint: CD14 expression on M2 macrophages (%)
Answers are plain numbers, in %.

Example entries and their recorded answers appear below.
COC1=CC(=O)[C@@]2(c3cc(=O)c4c(O)cc(OC)cc4o3)[C@H](C[C@]3(C)[C@@H](C(=O)O)CC=C4[C@H]3CCCC4(C)C)C(C)=CC[C@H]2C1=O : 91.25
COC1=CC(=O)[C@@]2(c3cc(=O)c4ccc(OC)cc4o3)[C@H](C[C@]3(C)[C@@H](C(=O)O)CC=C4[C@H]3CCCC4(C)C)C(C)=CC[C@H]2C1=O : 80.33
COC1=CC(=O)[C@@]2(c3cc(=O)c4ccc(O)cc4o3)[C@H](CC=C(C)[C@@H]2C[C@]2(C)[C@@H](C(=O)O)CC=C3[C@H]2CCCC3(C)C)C1=O : 57.93
COC1=CC(=O)[C@@]2(c3cc(=O)c4c(O)cc(O)cc4o3)[C@H](CC=C(C)[C@@H]2C[C@]2(C)[C@@H](C(=O)O)CC=C3[C@H]2CCCC3(C)C)C1=O : 62.34

Switching to the query record.
# input May I ask what CD14 expression on M2 macrophages has been recorded for COC1=CC(=O)[C@@]2(c3cc(=O)c4c(O)cc(O)cc4o3)[C@H](C[C@]3(C)[C@@H](C(=O)O)CC=C4[C@H]3CCCC4(C)C)C(C)=CC[C@H]2C1=O ?
# output 89.76

----------
Biological target: rat PFTase (Rattus norvegicus, UniProt Q02293+Q04631)
Assay: Inhibition of farnesyl transferase (fluorescence assay)
Conditions: mean ± SD of three independent experiments
reported-endpoint: pIC50
Numbers only, as −log10 of the molar value.

# input May I ask what pIC50 has been recorded for CSCC[C@H](NC(=O)c1ccc(NC(=O)[C@@H](N)CS)cc1)C(=O)O [FTase Inhibitor II, reference compound] ?
# output 6.89

----------
Please provide measured Cell viability of M2 macrophages for the entries that follow.
System: M2 macrophages
Test: Differentiation analysis, cell viability of M2 macrophages
Type: cell-based, human
Details: IL-4-induced M2 differentiation, 6 days; control 100%
One number for each entry, in %.

Example entries and their recorded answers appear below.
COC1=CC(=O)[C@@]2(c3cc(=O)c4c(O)cc(O)cc4o3)[C@H](C[C@]3(C)[C@@H](C(=O)O)CC=C4[C@H]3CCCC4(C)C)C(C)=CC[C@H]2C1=O : 136.4
COC1=CC(=O)[C@@]2(c3cc(=O)c4ccc(O)cc4o3)[C@H](CC=C(C)[C@@H]2C[C@]2(C)[C@@H](C(=O)O)CC=C3[C@H]2CCCC3(C)C)C1=O : 145.5
COC1=CC(=O)[C@@]2(c3cc(=O)c4ccc(OC)cc4o3)[C@H](C[C@]3(C)[C@@H](C(=O)O)CC=C4[C@H]3CCCC4(C)C)C(C)=CC[C@H]2C1=O : 86.4
COC1=CC(=O)[C@@]2(c3cc(=O)c4c(O)cc(OC)cc4o3)[C@H](C[C@]3(C)[C@@H](C(=O)O)CC=C4[C@H]3CCCC4(C)C)C(C)=CC[C@H]2C1=O : 90.6

# input Query for M2 macrophages: what Cell viability of M2 macrophages does the record show for COC1=CC(=O)[C@@]2(c3cc(=O)c4c(O)cc(O)cc4o3)[C@H](CC=C(C)[C@@H]2C[C@]2(C)[C@@H](C(=O)O)CC=C3[C@H]2CCCC3(C)C)C1=O ?
# output 100
